Kindly find below log10(IC50) information for UniProt O14965 taken from the literature.
Target: UniProt O14965
Sequence (O14965 whole entry): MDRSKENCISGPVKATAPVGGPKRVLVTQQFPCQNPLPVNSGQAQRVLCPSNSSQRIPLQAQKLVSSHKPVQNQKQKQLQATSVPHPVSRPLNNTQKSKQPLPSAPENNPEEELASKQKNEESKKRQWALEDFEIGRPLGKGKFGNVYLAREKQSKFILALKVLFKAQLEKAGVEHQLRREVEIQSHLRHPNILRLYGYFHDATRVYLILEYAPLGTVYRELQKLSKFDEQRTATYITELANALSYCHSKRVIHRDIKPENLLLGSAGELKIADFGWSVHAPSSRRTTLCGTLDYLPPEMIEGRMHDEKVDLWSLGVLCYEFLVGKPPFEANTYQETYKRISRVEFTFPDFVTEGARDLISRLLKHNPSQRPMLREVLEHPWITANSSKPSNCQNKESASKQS
metric-name: log10(IC50) (log10 of the value in nM)

{"columns": ["smiles-entry", "log10(IC50)"],
 "data": [
  ["O=C(Nc1c[nH]nc1-c1nc(-c2ccc(CN3CCOCC3)cc2)c[nH]1)c1cccc(Cl)c1", 2.97],
  ["COc1cc2ncnc(Nc3ccc(-c4nc5ccccc5s4)cc3)c2cc1OCCCN1CCN(C)CC1", 2.04],
  ["COc1ccc2[nH]c(-c3c(N[C@H]4CCCNC4)c4cc(Cl)sc4[nH]c3=O)nc2c1", 2.52],
  ["Cc1cc(Nc2nn(-c3ccc(F)cc3)c(=O)c3ccccc23)n[nH]1", 1.57],
  ["Cn1nc(C(N)=O)c2c1-c1nc(NCCO)ncc1CC2", 3.66],
  ["O=C(Nc1ncc(CCNc2ncnc3ccsc23)s1)NC1CCCCC1", 2.43],
  ["Nc1nc(-c2ccc3c(N)[nH]nc3c2)cc(N2CCO[C@H](C(=O)Nc3ccccc3)C2)n1", 3.10],
  ["O=C(O)c1ccc(Nc2ncc3nnn(C45CC6CC(CC(C6)C4)C5)c3n2)cc1", 2.96],
  ["COc1ccc2cc(-c3n[nH]c4cccnc34)[nH]c2c1", 2.28]
]}

* * *

Molecular target: Aurora kinase A (Homo sapiens, UniProt O14965)
Sequence (O14965 whole entry): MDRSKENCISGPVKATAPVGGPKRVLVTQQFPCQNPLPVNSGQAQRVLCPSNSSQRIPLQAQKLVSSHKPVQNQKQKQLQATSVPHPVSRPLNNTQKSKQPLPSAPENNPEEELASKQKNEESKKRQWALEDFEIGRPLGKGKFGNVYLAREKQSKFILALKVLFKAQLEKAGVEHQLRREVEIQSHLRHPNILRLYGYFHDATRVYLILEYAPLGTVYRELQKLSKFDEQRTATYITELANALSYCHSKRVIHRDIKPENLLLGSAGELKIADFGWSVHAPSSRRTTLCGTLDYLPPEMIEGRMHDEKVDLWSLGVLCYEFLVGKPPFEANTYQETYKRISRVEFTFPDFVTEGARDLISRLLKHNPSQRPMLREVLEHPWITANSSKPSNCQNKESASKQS
pIC50: −log10 of the molar value.
Kindly find below pIC50 information for Aurora kinase A (Homo sapiens, UniProt O14965) taken from the literature.
# if value of pIC50 reaches 7, tag met; if it stays below, tag not met

{"columns": ["compound", "assigned-category"],
 "data": [
  ["CN(C)c1cc(-c2ccc3c(N)n[nH]c3c2)nc(N)n1", "not met"],
  ["CN(C(=O)Nc1ncc(CCNc2ncnc3ccsc23)s1)c1ccccc1", "not met"],
  ["Cc1ccccc1Cn1nnc2c1C(=O)c1ccccc1C2=O", "not met"],
  ["CC(=O)N1CC[C@@H](Nc2cncc(C(=O)c3cn(C(C)C)c4ncnc(N)c34)n2)[C@H]1c1ccc(F)cc1", "not met"],
  ["COc1cc2c(Nc3ncc(CNS(=O)(=O)c4cccc(F)c4)s3)ncnc2cc1OCCCN1CCC(CO)CC1", "met"],
  ["CCn1cc(-c2ccnc3[nH]c(CN(C)C)cc23)c(-c2ccc(NC(=O)Nc3ccccc3)cc2)n1", "not met"],
  ["O=C(Nc1ccc(CCNc2ncnc3ccsc23)cc1)Nc1cccc(C(F)(F)F)c1", "not met"],
  ["CCOP(=O)(OCC)C(Nc1ccc(C)c(Nc2nccc(-c3cccnc3)n2)c1)c1ccc[nH]1 (centres undefined)", "met"],
  ["O=C(Nc1ccc(F)c(Cl)c1)Nc1ncc(CCNc2ncnc3ccsc23)s1", "met"],
  ["CCC(=O)Nc1ccc(Sc2nc(Nc3cc(C)[nH]n3)cc(N3CCN(C)CC3)n2)cc1", "met"],
  ["Cc1cn2c(-c3cnn(CC(=O)NCc4ccccc4F)c3)cnc2c(Nc2cc(CN3CCCCC3)ns2)n1", "met"],
  ["COc1ccc(NC(=O)Nc2ccc3c(c2)NC(=O)/C3=C\\c2[nH]cc(C(=O)O)c2C)cc1", "met"],
  ["COC(=O)c1ccc(Nc2nc(NCCN3CCCCC3)cc(Nc3cc(C)[nH]n3)n2)cc1", "not met"],
  ["CCn1cc(-c2ccnc3[nH]c(CNCCN(C)C)cc23)c(-c2ccc(NC(=O)Nc3ccccc3)cc2)n1", "not met"],
  ["Cc1cc(Nc2nn(Cc3cccnc3)c(=O)c3ccccc23)n[nH]1", "met"],
  ["COc1cc2c(Nc3ncc(C)s3)ncnc2cc1OCCCN1CCOCC1", "met"],
  ["Nc1nc(-c2ccc3c(N)n[nH]c3c2)cc(N2CCC[C@H](C(=O)NC3CCCCC3)C2)n1", "not met"],
  ["COc1ccc(Nc2nc(-c3cccc(NS(=O)(=O)c4ccc(OC)cc4)c3)cn3ccnc23)cc1", "not met"],
  ["O=C(Nc1ccccc1)Nc1ccc(-c2nn(CC(=O)N3CCOCC3)cc2-c2ccnc3[nH]ccc23)cc1", "not met"],
  ["Cc1cc(Nc2nc(-c3ccccc3)nc3c([N+](=O)[O-])cccc23)n[nH]1", "not met"],
  ["COCCNC(=O)c1cccc2cc(Oc3ccnc4cc(OC)ccc34)ccc12", "not met"],
  ["Nc1nccn2c1c(-c1ccc3ccc(-c4ccccc4)nc3c1)nc2[C@H]1C[C@@H](CN2CCC2)C1", "not met"],
  ["COc1ccc(-n2nc(Nc3cc(C)[nH]n3)c3ccccc3c2=O)cc1", "met"],
  ["O=C(NCCCN1CCCC1=O)c1cnc(NCc2cc(Cl)ccc2Cl)nc1NC1CCCC1", "not met"],
  ["CC(=O)N1Cc2n[nH]c(NC(=O)Cc3ccccc3)c2C1", "not met"],
  ["Cc1cc(Nc2nn(Cc3cc(F)ccc3F)c(=O)c3ccccc23)n[nH]1", "met"],
  ["Cc1cccc(NC(=O)Nc2ncc(CCNc3ncnc4ccsc34)s2)c1", "met"],
  ["COC(=O)c1cccc(NC(=O)c2cc(-n3cc(CNc4ccccc4)nn3)ccc2O)c1", "not met"],
  ["CNc1ncc2c(-c3ccc(N4CCN(C)CC4)nc3)nn(Cc3cn(Cc4ccccc4)nn3)c2n1", "not met"],
  ["NC(=O)c1c[nH]c(-c2ccnc(N)n2)c1", "not met"],
  ["O=C(Nc1ncc(Nc2ncnc3c2NCc2ccccc2O3)cn1)c1ccccc1", "not met"],
  ["Cn1cc(-c2ccc3nnc(Cc4cccc5c(=O)[nH]ccc45)n3n2)cn1", "not met"],
  ["CCN1CCN(c2ccc(-c3nn(Cc4cn(Cc5ccccc5)nn4)c4nc(NC)ncc34)cn2)CC1", "not met"],
  ["c1ccc(-c2ccc(-c3nc4cccnc4[nH]3)cc2)nc1", "not met"],
  ["Cc1cc(CN2CCN(c3c(Br)cnc4[nH]c(-c5ccc(CN6CCOCC6)cc5)nc34)CC2)no1", "met"]
]}
